measurement.target: T1, PTHR1 on CHO-K1/Ga15/PTHR1 cells (UniProt Q03431 27-593, limits assumed)
T1 sequence (looked up): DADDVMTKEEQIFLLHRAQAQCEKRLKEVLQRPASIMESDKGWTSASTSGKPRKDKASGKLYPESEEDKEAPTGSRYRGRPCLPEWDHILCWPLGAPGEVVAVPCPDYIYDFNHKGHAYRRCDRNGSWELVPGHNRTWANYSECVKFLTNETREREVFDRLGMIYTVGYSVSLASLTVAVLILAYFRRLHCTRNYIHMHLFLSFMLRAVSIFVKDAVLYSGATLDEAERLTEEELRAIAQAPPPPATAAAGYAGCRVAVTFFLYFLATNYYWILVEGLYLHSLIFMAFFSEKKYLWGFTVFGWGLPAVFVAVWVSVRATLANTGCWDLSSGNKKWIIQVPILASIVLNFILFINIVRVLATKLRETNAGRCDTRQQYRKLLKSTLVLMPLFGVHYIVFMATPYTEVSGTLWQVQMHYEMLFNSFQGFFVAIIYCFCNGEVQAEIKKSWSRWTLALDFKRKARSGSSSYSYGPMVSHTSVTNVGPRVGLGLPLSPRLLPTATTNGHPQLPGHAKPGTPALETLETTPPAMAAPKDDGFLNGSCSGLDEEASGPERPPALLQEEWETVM
assay.summary: cell-based or functional assay
Provide the recorded cAMP accumulation (HTRF): Emax for the entries that follow.
Response body: numeric value in %, unit text excluded.

[Q] Give the measured cAMP accumulation (HTRF): Emax of AVAEIQLMHQRAKWIQDARRRAFLHKLIAEIH [LA-PM-FL (R1-81)] .
[A] 95

[Q] Give the measured cAMP accumulation (HTRF): Emax of AVAEIQLMHQRAKWKQELELEEKNKKILEDVY [R2-32] .
[A] 101

[Q] Give the measured cAMP accumulation (HTRF): Emax of GVAELQLMHFRALLRAEYELREMLLRLLEEIF [R2-7] .
[A] 823
